ASSAY_SYSTEM: endogenous human UII receptor (Homo sapiens, UniProt Q9UKP6)
Sequence (Q9UKP6 whole entry): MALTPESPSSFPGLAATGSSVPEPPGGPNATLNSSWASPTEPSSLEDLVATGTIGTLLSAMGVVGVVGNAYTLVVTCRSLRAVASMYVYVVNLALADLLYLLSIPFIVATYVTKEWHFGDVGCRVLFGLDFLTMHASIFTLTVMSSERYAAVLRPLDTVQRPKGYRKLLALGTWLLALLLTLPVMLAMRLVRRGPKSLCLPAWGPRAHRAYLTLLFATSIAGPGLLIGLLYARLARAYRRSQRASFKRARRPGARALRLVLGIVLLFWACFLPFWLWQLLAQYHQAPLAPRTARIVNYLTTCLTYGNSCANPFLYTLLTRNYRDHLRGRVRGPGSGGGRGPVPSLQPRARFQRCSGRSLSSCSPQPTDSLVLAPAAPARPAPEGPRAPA
PROCEDURE_TEXT: Human Radioligand Binding Assay ((^125I)-U-II binding to human skeletal muscle myoblasts)
Quick reference for Ki among some compounds
VALUE_KIND: Ki (nM)

>>> value_observed("COc1ccc([C@@H](CCCNC(=O)c2nccn2C)N2C(=O)c3cccc(N4CCN([C@H](C)c5ccccc5)CC4)c3C2=O)cc1OC")
120
>>> value_observed("COc1ccc([C@@H](CCCNC(=O)c2ccc(S(C)(=O)=O)s2)N2C(=O)c3cccc(N4CCN([C@H](C)c5ccccc5)CC4)c3C2=O)cc1OC")
260
>>> value_observed("COc1ccc([C@@H](CCCNC(=O)c2cc(C)on2)N2C(=O)c3cccc(N4CCN([C@H](C)c5ccccc5)CC4)c3C2=O)cc1OC")
150
>>> value_observed("COc1ccc([C@@H](CCCNC(=O)c2csc(C)n2)N2C(=O)c3cccc(N4CCN([C@H](C)c5ccccc5)CC4)c3C2=O)cc1OC")
84
>>> value_observed("COc1ccc([C@@H](CCCNC(=N)N)N2C(=O)c3cccc(N4CCN([C@H](C)c5ccccc5)CC4)c3C2=O)cc1OC")
640
>>> value_observed("COc1ccc([C@@H](CCCNS(=O)(=O)O)N2C(=O)c3cccc(N4CCN([C@H](C)c5ccccc5)CC4)c3C2=O)cc1OC")
9
>>> value_observed("CCOCCC(=O)NCCC[C@H](c1ccc(OC)c(OC)c1)N1C(=O)c2cccc(N3CCN([C@H](C)c4ccccc4)CC3)c2C1=O")
57
>>> value_observed("COc1ccc([C@@H](CCCNC(=O)C2CCCO2)N2C(=O)c3cccc(N4CCN([C@H](C)c5ccccc5)CC4)c3C2=O)cc1OC (stereo partly shown)")
45
>>> value_observed("COC(=O)c1csc(S(=O)(=O)NCCCC(c2ccc(OC)c(OC)c2)N2C(=O)c3cccc(N4CCN([C@H](C)c5ccccc5)CC4)c3C2=O)c1OC (stereo partly shown)")
350
>>> value_observed("COc1ccc([C@@H](CCCNC(=O)c2cn(C)cn2)N2C(=O)c3cccc(N4CCN([C@H](C)c5ccccc5)CC4)c3C2=O)cc1OC")
88
>>> value_observed("COc1ccc([C@@H](CCCNC(=O)C(C)(C)C)N2C(=O)c3cccc(N4CCN([C@H](C)c5ccccc5)CC4)c3C2=O)cc1OC")
23
>>> value_observed("COc1ccc(C(CCCNS(=O)(=O)CS(C)(=O)=O)N2C(=O)c3cccc(N4CCN([C@H](C)c5ccccc5)CC4)c3C2=O)cc1OC (stereo partly shown)")
25
>>> value_observed("COc1ccc([C@@H](CCCNC(=O)C2CCCC2)N2C(=O)c3cccc(N4CCN([C@H](C)c5ccccc5)CC4)c3C2=O)cc1OC")
43

* * *

ASSAY_SYSTEM: Human UII receptor, 6D9 human rhabdomyosarcoma cells (Homo sapiens, UniProt Q9UKP6)
Construct: 6D9: isolated by dilution subcloning of RMS13 cells, ATCC® Number: CRL-2061
Sequence (Q9UKP6 whole entry): as above
PROCEDURE_TEXT: Human UII Calcium Mobilization Assay
RUN_CONDITIONS: average value, FLIPR TETRA, read-out: Human UII Ca^+ Mobilization Average IC50
pIC50: −log10 of the molar value.
Entries and their measured pIC50 follow.
VALUE_KIND: pIC50

>>> value_observed("COc1ccc(C(CCCNS(=O)(=O)c2c(C)nn(C)c2C)N2C(=O)c3cccc(N4CCN([C@H](C)c5ccccc5)CC4)c3C2=O)cc1OC (stereo partly drawn)")
6.51
>>> value_observed("COc1ccc([C@@H](CCCNS(=O)(=O)c2cn(C)c(C)n2)N2C(=O)c3cccc(N4CCN([C@H](C)c5ccccc5)CC4)c3C2=O)cc1OC")
6.66
>>> value_observed("COc1ccc([C@@H](CCCNC(=N)N)N2C(=O)c3cccc(N4CCN([C@H](C)c5ccccc5)CC4)c3C2=O)cc1OC")
5.57
